Biological target: Vascular endothelial growth factor receptor 2 (Homo sapiens, UniProt P35968)
Sequence (P35968 whole entry): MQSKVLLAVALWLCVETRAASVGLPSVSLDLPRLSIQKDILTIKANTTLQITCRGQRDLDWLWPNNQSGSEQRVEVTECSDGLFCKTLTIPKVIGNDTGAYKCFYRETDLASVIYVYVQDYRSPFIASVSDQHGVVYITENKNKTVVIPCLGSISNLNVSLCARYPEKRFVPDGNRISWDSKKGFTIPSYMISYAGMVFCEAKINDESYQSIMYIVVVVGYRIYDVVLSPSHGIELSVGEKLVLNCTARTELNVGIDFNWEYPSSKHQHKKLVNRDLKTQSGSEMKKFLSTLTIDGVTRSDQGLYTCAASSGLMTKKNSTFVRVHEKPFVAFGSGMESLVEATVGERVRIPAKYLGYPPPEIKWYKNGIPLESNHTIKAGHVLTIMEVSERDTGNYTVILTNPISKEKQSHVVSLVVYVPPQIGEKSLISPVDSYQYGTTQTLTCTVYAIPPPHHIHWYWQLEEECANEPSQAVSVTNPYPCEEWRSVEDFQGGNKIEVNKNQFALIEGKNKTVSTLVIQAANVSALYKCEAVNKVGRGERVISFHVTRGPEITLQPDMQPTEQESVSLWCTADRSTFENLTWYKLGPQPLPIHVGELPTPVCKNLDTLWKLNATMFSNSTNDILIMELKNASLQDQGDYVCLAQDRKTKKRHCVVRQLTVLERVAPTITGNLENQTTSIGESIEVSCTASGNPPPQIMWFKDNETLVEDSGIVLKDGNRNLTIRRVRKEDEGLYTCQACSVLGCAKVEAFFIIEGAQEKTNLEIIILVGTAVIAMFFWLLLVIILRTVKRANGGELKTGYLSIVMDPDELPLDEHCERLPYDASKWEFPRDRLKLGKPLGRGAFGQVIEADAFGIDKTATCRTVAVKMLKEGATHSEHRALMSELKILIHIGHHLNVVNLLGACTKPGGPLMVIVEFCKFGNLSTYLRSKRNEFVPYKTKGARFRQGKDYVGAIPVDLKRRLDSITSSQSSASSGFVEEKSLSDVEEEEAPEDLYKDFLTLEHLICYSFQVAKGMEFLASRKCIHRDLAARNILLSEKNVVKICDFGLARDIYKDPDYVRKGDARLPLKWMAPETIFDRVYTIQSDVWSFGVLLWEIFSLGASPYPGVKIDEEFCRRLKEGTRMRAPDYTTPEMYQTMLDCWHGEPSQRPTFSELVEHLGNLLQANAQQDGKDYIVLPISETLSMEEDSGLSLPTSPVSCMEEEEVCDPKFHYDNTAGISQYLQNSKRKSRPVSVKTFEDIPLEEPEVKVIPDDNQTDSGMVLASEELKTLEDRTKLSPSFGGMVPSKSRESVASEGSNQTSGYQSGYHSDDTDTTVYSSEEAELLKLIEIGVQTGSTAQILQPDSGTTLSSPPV
Output 1 for records whose IC50 is lower than 40 nM, -1 for records at or above 40 nM.

Solved cases below.
>>> group("COc1cc2c(Oc3ccc(NC(=O)C4(C(=O)Nc5ccc(F)cc5)CC4)cc3F)ccnc2cc1OCCCCCNC(=O)CS [US12304898, Example 58]")
1
>>> group("COc1cc2c(Oc3ccc(NC(=O)C4(C(=O)Nc5ccc(F)cc5)CC4)cc3F)ccnc2cc1OCCCN(C)CCCS [US12304898, Example 53]")
1
>>> group("COc1cc2c(Oc3ccc(NC(=O)C4(C(=O)Nc5ccc(F)cc5)CC4)cc3F)ccnc2cc1OCCCCCCNC(=O)CSC(C)=O [US12304898, Example 63]")
1

Prompt: Strictly below 40 nM: is that where IC50 of CC(=O)SCC(=O)NCCCCCOc1cc2nccc(Oc3ccc(NC(=O)C4(C(=O)NC5CC5)CC4)cc3F)c2cc1C(N)=O [US12304898, Example 73] sits?
Completion: -1

Prompt: Take the compound COc1cc2c(Oc3ccc(NC(=O)C4(C(=O)Nc5ccc(F)cc5)CC4)cc3F)ccnc2cc1OCCCCCNC(=O)CSC(C)=O [US12304898, Example 57] and say whether its IC50 is less than 40 nM.
Completion: 1

* * *

Molecular target: Histone deacetylase 6 (Homo sapiens, UniProt Q9UBN7)
Sequence (Q9UBN7 whole entry): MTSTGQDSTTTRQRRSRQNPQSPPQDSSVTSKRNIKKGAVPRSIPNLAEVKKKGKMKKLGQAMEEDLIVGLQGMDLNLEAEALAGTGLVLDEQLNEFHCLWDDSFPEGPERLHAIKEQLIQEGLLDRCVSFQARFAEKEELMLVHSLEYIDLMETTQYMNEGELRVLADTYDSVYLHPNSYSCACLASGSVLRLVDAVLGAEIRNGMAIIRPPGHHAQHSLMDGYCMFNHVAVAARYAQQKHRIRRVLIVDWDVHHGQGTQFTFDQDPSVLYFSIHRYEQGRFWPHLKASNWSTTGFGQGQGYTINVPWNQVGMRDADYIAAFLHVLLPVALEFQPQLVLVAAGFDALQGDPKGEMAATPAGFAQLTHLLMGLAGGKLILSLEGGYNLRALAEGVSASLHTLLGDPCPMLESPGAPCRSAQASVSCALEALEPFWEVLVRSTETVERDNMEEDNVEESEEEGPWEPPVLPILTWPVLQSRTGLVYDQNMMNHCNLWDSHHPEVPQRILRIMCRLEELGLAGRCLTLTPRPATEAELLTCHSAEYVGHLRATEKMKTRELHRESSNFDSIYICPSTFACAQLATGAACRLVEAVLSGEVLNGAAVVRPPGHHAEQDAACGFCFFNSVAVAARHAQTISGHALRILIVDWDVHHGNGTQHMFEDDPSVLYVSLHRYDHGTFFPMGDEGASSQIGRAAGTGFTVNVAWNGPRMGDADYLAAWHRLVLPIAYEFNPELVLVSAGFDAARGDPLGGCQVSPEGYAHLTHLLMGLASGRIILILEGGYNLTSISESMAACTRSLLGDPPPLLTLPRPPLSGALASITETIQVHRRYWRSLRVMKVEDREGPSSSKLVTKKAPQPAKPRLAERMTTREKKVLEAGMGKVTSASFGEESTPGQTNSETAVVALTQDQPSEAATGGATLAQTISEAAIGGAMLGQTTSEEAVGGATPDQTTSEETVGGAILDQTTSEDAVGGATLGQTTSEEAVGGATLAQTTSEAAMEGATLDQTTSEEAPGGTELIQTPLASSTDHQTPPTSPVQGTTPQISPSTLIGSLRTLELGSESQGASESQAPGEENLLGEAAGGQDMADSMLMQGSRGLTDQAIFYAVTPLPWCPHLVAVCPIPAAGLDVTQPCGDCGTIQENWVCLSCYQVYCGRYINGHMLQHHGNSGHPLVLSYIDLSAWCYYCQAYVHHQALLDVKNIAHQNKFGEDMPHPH
measuredParameter: pIC50
Give bare numbers, as −log10 of the molar value.

>>> endpointvalue("COc1cc2c(Oc3ccc(NC(=O)C4(C(=O)Nc5ccc(F)cc5)CC4)cc3F)ccnc2cc1OCCCCCNC(=O)CSC(C)=O [US12304898, Example 57]")
7.32

Moving on to another molecule below.
Prompt: Lab note: Histone deacetylase 6 (Homo sapiens, UniProt Q9UBN7) assay, enter pIC50 for COc1cc2c(Oc3ccc(NC(=O)C4(C(=O)Nc5ccc(F)cc5)CC4)cc3F)ccnc2cc1OCCCCNC(=O)CSC(C)=O [US12304898, Example 61] here
Completion: 7.52
